Listed below: pIC50 values for each entry.
# target system: Human TRPA1 (Homo sapiens, UniProt O75762)
# Sequence (O75762 whole entry): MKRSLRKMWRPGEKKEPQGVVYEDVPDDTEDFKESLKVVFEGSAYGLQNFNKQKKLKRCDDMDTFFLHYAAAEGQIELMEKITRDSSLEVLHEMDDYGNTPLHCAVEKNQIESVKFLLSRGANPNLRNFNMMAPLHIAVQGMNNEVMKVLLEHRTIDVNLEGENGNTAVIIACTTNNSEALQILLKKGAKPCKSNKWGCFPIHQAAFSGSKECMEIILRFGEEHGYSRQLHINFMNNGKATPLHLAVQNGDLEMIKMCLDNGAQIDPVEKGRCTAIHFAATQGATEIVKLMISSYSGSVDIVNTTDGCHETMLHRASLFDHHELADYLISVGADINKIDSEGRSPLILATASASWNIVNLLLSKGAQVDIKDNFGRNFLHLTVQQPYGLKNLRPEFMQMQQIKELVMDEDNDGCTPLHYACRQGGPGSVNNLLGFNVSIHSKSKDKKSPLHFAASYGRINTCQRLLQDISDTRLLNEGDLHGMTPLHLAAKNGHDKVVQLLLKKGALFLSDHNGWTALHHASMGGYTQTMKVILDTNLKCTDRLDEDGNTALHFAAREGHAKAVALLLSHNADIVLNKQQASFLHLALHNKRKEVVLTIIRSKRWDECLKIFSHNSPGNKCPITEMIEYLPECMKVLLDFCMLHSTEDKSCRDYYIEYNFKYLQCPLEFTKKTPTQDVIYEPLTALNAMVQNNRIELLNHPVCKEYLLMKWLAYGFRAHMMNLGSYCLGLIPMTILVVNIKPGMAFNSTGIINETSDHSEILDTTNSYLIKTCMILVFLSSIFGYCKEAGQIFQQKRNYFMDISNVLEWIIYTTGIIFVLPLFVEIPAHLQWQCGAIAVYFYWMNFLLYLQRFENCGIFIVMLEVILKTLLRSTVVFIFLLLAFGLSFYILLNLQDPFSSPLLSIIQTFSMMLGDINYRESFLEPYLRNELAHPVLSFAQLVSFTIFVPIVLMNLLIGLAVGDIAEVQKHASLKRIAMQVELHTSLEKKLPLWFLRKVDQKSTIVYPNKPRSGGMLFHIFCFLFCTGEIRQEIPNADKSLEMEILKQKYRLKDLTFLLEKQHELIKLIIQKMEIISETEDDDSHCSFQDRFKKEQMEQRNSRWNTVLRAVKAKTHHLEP
# protocol notes: Assay 1: In vitro cellular testing of TRPA1 modulation (CHO-TREx, Fluo-3 calcium fluorescence, AITC agonist)
# Type: cell-based
# Parameters: expressed in transfected cells; host or cells: CHO-TREx cells (Invitrogen), vector pcDNA4/TO
# cond: CHO-TREx cells expressing human TRPA1; Fluo-3 fluorescence (FLIPR/Tetra); agonist 15 μM allyl isothiocyanate (AITC); 30 minute antagonist incubation
A value of pIC50 is the negative decimal logarithm of a concentration given in moles per litre.

*Q* Let me know recorded pIC50 for O=C(NCc1cc(NCc2ccccc2)nc(-c2ccc(C(F)(F)F)cc2)c1)[C@@H]1CCCN1S(=O)(=O)c1ccc(Cl)s1 , thanks.
*A* 6.29

---

Measured pIC50 accompanies every entry in the list below.
# target system: Human TRPA1 (Homo sapiens, UniProt O75762)
# protocol notes: Alternative TRPA1 Ca2+ fluorometry assay (hTRPA1/TREx-HEK293 cells, Fluo-4, FDSS 6000)
# Assay type: cell-based
# Design: expressed in transfected cells
# cond: Fluo-4-AM, agonist 6,11-dihydro-5H-dibenzo[b,e]azepine-10-carboxylic acid methyl ester 25 nM, procedure used for Examples 184, 190 to 192, 194 to 316
# Description: In alternative embodiments, the assay was performed using the following procedure for Examples 184, 190 to 192, and 194 to 316: […] The cells were loaded with 5 mg/l Fluo-4-AM (Molecular Probes, Invitorgen, Merelbeke, Belgium) dissolved in HBSS seeding medium supplemented with 0.7 g/l Probenecid (Sigma) and incubated for 1 h at 37° C. and subsequently at 20° C. for 1 to 2 h. The fluorescence was measured in the FDSS 6000 imaging based plate reader (Hamamutsu Photonics K.K., Hamamutsu City, Japan). […]
// field semantics: pIC50 = negative decimal log of concentration (mol/L)

- CC1CCN(c2nc(CNC(=O)[C@@H]3CCCN3S(=O)(=O)c3ccc(F)cc3)cc(-c3ccc(Br)cc3)n2)CC1: 5.35

*Q* Find the measured pIC50 of CC(Nc1nc(CNC(=O)[C@@H]2CCCN2S(=O)(=O)c2ccc(F)cc2)cc(-c2ccc(Br)cc2)n1)c1ccccc1 (some centres unmarked) and report it.
*A* 6.17

*Q* Dear colleague, please send me the reported pIC50 for CCCCNc1nc(CNC(=O)[C@@H]2CCCN2S(=O)(=O)c2ccc(F)cc2)cc(-c2ccc(C(F)(F)F)cc2)n1 when you can.
*A* 6.39

*Q* Supply reported pIC50 belonging to this compound: CC(C)[C@@H](CO)Nc1nc(CNC(=O)[C@@H]2CCCN2S(=O)(=O)c2ccc(F)cc2)cc(-c2ccc(C(F)(F)F)cc2)n1
*A* 5.75

---

# target system: Human TRPA1 (Homo sapiens)
# protocol notes: Assay 1: In vitro cellular testing of TRPA1 modulation (CHO-TREx, Fluo-3 calcium fluorescence, AITC agonist)
# Format: cell-based
# Set-up: expressed in transfected cells; host or cells: CHO-TREx cells (Invitrogen), vector pcDNA4/TO
# cond: CHO-TREx cells expressing human TRPA1; Fluo-3 fluorescence (FLIPR/Tetra); agonist 15 μM allyl isothiocyanate (AITC); 30 minute antagonist incubation
# Description: Assay 1: In Vitro Cellular Testing of TRPA1 Modulation Human TRPA1 (NCBI accession number NM_007332.1) was cloned into pcDNA4/TO. […] Following a further 30 minute incubation, cells were assayed using a Fluorometric Imaging Plate Reader (FLIPR™) or a Tetra (both manufactured by Molecular Devices, CA) to simultaneously monitor Fluo-3 fluorescence in all wells (λexcitation=488 nm, λemission=540 nm). […]
assay endpoint: log10 of IC50 (log10 of the value in µM)
All values: base-10 log of IC50 in µM.

Below are worked cases with known answers.
• O=C(NCc1cc(-c2ccc(C(F)(F)F)cc2)nc(N2CCN(c3ccccc3F)CC2)c1)[C@@H]1CCCN1S(=O)(=O)c1ccc(F)cc1 [Example 325] = -0.07
• O=C(NCc1ccnc(-c2ccc(OC(F)(F)F)cc2)c1)[C@@H]1CC(F)(F)CN1S(=O)(=O)c1ccc(Cl)s1 [Example 132] = -0.93
• CC(C)CN1CCN(c2nc(CNC(=O)[C@@H]3CC(F)(F)CN3S(=O)(=O)c3ccc(Cl)s3)cc(-c3ccc(C(F)(F)F)cc3)n2)CC1 [Example 57] = -0.71
• O=C(NCc1cc(NCc2ccccn2)nc(-c2ccc(C(F)(F)F)cc2)c1)[C@@H]1C=CCN1S(=O)(=O)c1ccc(F)cc1 [Example 380] = -0.28
• O=C(NCc1cc(-c2ccc(C(F)(F)F)cc2)nc(N2CCN(Cc3ccccc3)CC2)c1)[C@@H]1CC(F)(F)CN1S(=O)(=O)c1ccc(F)cc1 [Example 388] = 0.55

*Q* Complete the entry with log10 of IC50 for CN(C)c1cc(CNC(=O)[C@@H]2CCCN2S(=O)(=O)c2ccc(F)cc2)cc(-c2ccc(C(F)(F)F)cc2)n1 [Example 331]
*A* -0.75

*Q* Fill in log10 of IC50 for record O=C(NCc1cccc(-c2ccc(C(F)(F)F)cc2)c1)[C@@H]1CC(F)(F)CN1S(=O)(=O)c1ccc(Cl)s1 [Example 120]
*A* -1.52

*Q* Recall and state the measured log10 of IC50 for Cc1ccc(-c2cccc(CNC(=O)[C@@H]3CCCN3S(=O)(=O)c3ccc(F)cc3)c2)cn1 [Example 87] .
*A* 0.25

*Q* // fetch log10 of IC50 given entry O=C(NCc1cc(-c2ccc(C(F)(F)F)nc2)ncn1)[C@@H]1CCCN1S(=O)(=O)c1ccc(F)cc1 [Example 178]
*A* -0.69

*Q* Find the measured log10 of IC50 of O=C(NCc1cccc(-c2ccc3ncccc3c2)c1)[C@@H]1CCCN1S(=O)(=O)c1ccc(F)cc1 [Example 106] and report it.
*A* -0.23

*Q* Answer with the recorded log10 of IC50 for the molecule listed here: Cc1nc(CNC(=O)[C@@H]2CCCN2S(=O)(=O)c2ccc(F)cc2)cc(-c2ccc(C(F)(F)F)cc2)n1 [Example 183]
*A* -1.70

*Q* Note log10 of IC50 for the molecule shown: O=C(NCc1cc(NCc2ccccn2)nc(-c2ccc(C(F)(F)F)cc2)c1)[C@@H]1CCCN1S(=O)(=O)c1ccc(F)cc1 [Example 392]
*A* -0.38

*Q* Please report log10 of IC50 for the following molecule: O=C(NCc1cc(-c2ccc(C(F)(F)F)cc2)nc(N2CCN(Cc3ccncc3)CC2)c1)[C@@H]1CCCN1S(=O)(=O)c1ccc(Cl)s1 [Example 327]
*A* -0.23
